# System: SK-MEL-5 melanoma
# testDetails: NCI-60 one-dose screen, 48 h
# statedConditions: 10 µM unless noted
Compounds without any hit were thinned out: in the full panel of roughly 83,000, 20% have a hit. Calls of active or inactive are those of the source. How the source made its calls: active means growth percent below 10; inactive means the rest.
Labels: active, inactive

[
  {
    "compound": "Cn1c2c(c3ccccc31)CCN1C[C@@H]3CCCC[C@H]3C[C@@H]21",
    "answerLabel": "active"
  },
  {
    "compound": "CCCCCCCCCCCCCCCC[N+](C)(CCO)Cc1cnc[nH]1 (stereo unspecified)",
    "answerLabel": "active"
  },
  {
    "compound": "O=C(/C=C\\c1cc(Br)ccc1O)/C=C/c1cc(Br)ccc1O",
    "answerLabel": "active"
  },
  {
    "compound": "S=C(NCCNC(=S)[S][Sn]([c]1ccccc1)([c]1ccccc1)[c]1ccccc1)[S][Sn]([c]1ccccc1)([c]1ccccc1)[c]1ccccc1",
    "answerLabel": "active"
  },
  {
    "compound": "CCOC(=O)/C=C/c1ccc([N+](=O)[O-])o1",
    "answerLabel": "inactive"
  },
  {
    "compound": "CC(=O)C(=Cc1ccc(C=C(C(C)=O)C(C)=O)cc1)C(C)=O",
    "answerLabel": "inactive"
  },
  {
    "compound": "O=C(Nc1ccccc1)c1cc(Cl)ccc1O",
    "answerLabel": "active"
  },
  {
    "compound": "Nc1ccc(SSc2ccc(N)cc2)cc1",
    "answerLabel": "inactive"
  },
  {
    "compound": "O=C(Nc1ccc(F)cc1)ON=C1CCCCC1",
    "answerLabel": "inactive"
  },
  {
    "compound": "CCC(CC)COC(=O)c1ccc(O)c(O)c1",
    "answerLabel": "inactive"
  },
  {
    "compound": "CCC(CCCN(CC)CCc1ccccc1)OC(=O)c1cc(OC)c(OC)c(OC)c1 (stereo unspecified)",
    "answerLabel": "inactive"
  }
]

---

# System: HOP-92 NSCLC
# testDetails: NCI-60 one-dose screen, 48 h (100 = growth as untreated, 0 = no growth, -100 = all killed)
# statedConditions: 10 µM unless noted
Compounds without any hit were thinned out: in the full panel of roughly 83,000, 20% have a hit.

[
  {
    "molecule": "COc1cc(/C=C(/C)C[N+](=O)[O-])ccc1O",
    "growth [%]": 98.4
  },
  {
    "molecule": "Cc1ccnc(NC(c2ccccc2)c2ccc3cccnc3c2O)c1 (centres undefined)",
    "growth [%]": 67.8
  },
  {
    "molecule": "O=C1c2ccccc2C(=O)c2sc(Nc3ccc(Cl)cc3)nc21",
    "growth [%]": 59.1
  },
  {
    "molecule": "Nc1ccc(SSc2ccc(N)cc2)cc1",
    "growth [%]": 103
  },
  {
    "molecule": "CC1SC(=S)N(c2ccc(Cl)cc2)C1=O (centres undefined)",
    "growth [%]": 77.6
  },
  {
    "molecule": "O=C(Nc1ccccc1)c1cc(Cl)ccc1O",
    "growth [%]": 14.5
  },
  {
    "molecule": "OC(CNc1ccnc2cc(Cl)ccc12)CNc1ccnc2cc(Cl)ccc12",
    "growth [%]": 77.6
  },
  {
    "molecule": "O=C(/C=C/c1cccc(Cl)c1)c1ccccc1",
    "growth [%]": 88.1
  },
  {
    "molecule": "NC(=S)N/N=C/c1ccc(Cl)s1",
    "growth [%]": 97.5
  }
]
